- Tested on: MS2 coat protein
- Experiment Description: apparent KD of MS2 coat protein; designed switch direction (-1 OFF switch, 1 ON switch): -1; higher = weaker reporter binding
- Run Parameters: input ligand: none
Measured apparent KD of MS2 coat protein by item
Provide the reading as a plain figure in nM.

Use the examples below as a reference point.
AUUUACAAGCUAAGAUCCUACAUGAGGAUCACCCAUGUGGUCCGGUGACGUGAGUCACCGGACUUAGCUCGUCUUGA [salish99_S_TOV1_R5_082] (Eterna round: R97, puzzle: Sensor, turn-off variant 1)	36.8
GCGCCAUCGUGAGAUGGCGUAUAUACAUGAGGAUCACCCAUGUAGGAUAUCGAUUGCUUUGCAGUCGAGAAGGGCAAGGUAUUU [JL ENG3 3.91] (Eterna round: R96, puzzle: Exclusion NG 3)	33.8
UAGUACCAAGGAUAUGCGUGACCAUGGCCUCCGUGGUAGAGACAUGAGGAUCACCCAUGUAGAAGGUGGAUAAC [Eternabot (L1) Solution 74] (Eterna round: R97, puzzle: Exclusion 2)	335
UACACGGGAGGAUAUACGUAGAUGCAGGUUCGUGUGGUGCUACAUGAGGAUCACCCAUGUAGAAGGCCCAACGU [Mod 4 R3 JL-ex2-2.29] (Eterna round: R97, puzzle: Exclusion 2)	23.4
ACAAGCUUUUAGAUUUUCAACAUGAGGAUCACCCAUGUUCGUCUUAGGCUAGUGCGAGUGCGGUGUACUCGUAUUAG [JL TOV1 3.84 sellena mod] (Eterna round: R97, puzzle: Sensor, turn-off variant 1)	16.4

// recorded apparent KD of MS2 coat protein for GGGCCCGGUGUGAGGAUAUUUGAAGUGAAAGCUUCGGAGAAGGCACAUGAGGAUCACCCAUGUAAGCCGGGCCC [-35.9, -33.8 kcal, A 26%, 3bis-0] (Eterna round: R97, puzzle: Brourd's mod of Exclusion 4) : 13.4

// recorded apparent KD of MS2 coat protein for AUAUACGGAGGAUAUACUUGAGGAUCACCCAAGUGGAAUCCCGUUUGGGCGGUAAAUAGUAGAAGGCCGACCCA [jl-ex3-4.42 ViennaUCT mod] (Eterna round: R97, puzzle: Exclusion 3) : 16.3

// recorded apparent KD of MS2 coat protein for CUAAAUCAUGUAGGAUAUGCGUGGCAAAGCUAUGCAGAAGGACAUGAGGAUCACCCAUGUGCUUCCGUCUGCGUACAGACGGUA [Mat - Exclusion NG 1 - Mod of JL - D21] (Eterna round: R96, puzzle: Exclusion NG 1) : 110

// recorded apparent KD of MS2 coat protein for GCGUACUGAGGAUAUACAUGAGGAUCACCCAUGUGAAGAAGAAAGUAGUGAUGGUUGGGUAGAAGGCAGUAUGC [JR_Ex3_Sub064] (Eterna round: R97, puzzle: Exclusion 3) : 98.5

// recorded apparent KD of MS2 coat protein for GCAGCACAUGUAGGAUAUCUGCACGUGUAGUGCAGAGAAGGACAUGAGGAUCACCCAUGUAAUUAAGAUCAAUUAUUAAGCUGC [ENG1/3-C3] (Eterna round: R96, puzzle: Exclusion NG 1) : 49.1

// recorded apparent KD of MS2 coat protein for GAACUGAAGCUUUGCUUUAGUCGUACAUGAGGAUCACCCAUGUAGGAUAUGGUAGGCAAAGCUUACUAGAAGGACAGAGUGAUC [Mat - Exclusion NG 3 - Mod of JL - D69] (Eterna round: R96, puzzle: Exclusion NG 3) : 71.3
